Sourced from patent US12448399B2

# study-system: KRas-G12D (Homo sapiens, UniProt P01116, G12D)
# Construct: insert the HiBiT tag onto the N-terminus of one or more of the endogenous KRas alleles; host or cells: AsPC-1 HiBiT-KRasG12D knock-in clone (one tagged allele, two untagged KRasG12D alleles)
# Sequence (P01116 1-188 isoform P01116-2 G12D): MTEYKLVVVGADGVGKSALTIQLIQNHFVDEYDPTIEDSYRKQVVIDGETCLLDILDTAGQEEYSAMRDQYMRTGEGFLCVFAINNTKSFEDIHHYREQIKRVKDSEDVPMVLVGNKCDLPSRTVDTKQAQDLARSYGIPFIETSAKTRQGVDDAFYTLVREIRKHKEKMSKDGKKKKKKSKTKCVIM
# experiment-description: HiBiT Degradation Assay (G12D), AsPC-1 HiBiT-KRasG12D cells, 24 hr
# Format: cell-based
# condition-description: AsPC-1 cells
# Protocol: AsPC-1 (CRL-1682) cells were purchased from ATCC and are homozygous for the G12D mutation in KRas. […] AsPC-1 HiBiT-KRasG12D cells were plated at 9000 or 15,000 cells/well in a 384 well plate (Corning #3770). […] Plates were then allowed to equilibrate to RT and fluorescence was measured using a Perkin-Elmer EnVision. After completion of the fluorescence read, the liquid from each well was removed and the cells were washed with PBS. […]
property: DC50

{"columns": ["molecule", "value-measured"],
 "data": [
  ["CCc1cccc2cc(O)cc(-c3ncc4c(N5CC6CCC(C5)N6)nc(OCCN5CCN([C@H]6CC[C@H](Nc7ccc8c(c7)C(=O)N(C7CCC(=O)NC7=O)C8=O)CC6)CC5)nc4c3F)c12 (stereo partly drawn) [Compound 33]", "0.25 to 1 µM"],
  ["C#Cc1c(F)ccc2cc(O)cc(-c3ncc4c(N5CC6CCC(C5)N6)nc(OCCN5CCC(CN6CC7(CCN(c8cc(C)c9c(c8F)CN(C8CCC(=O)NC8=O)C9=O)CC7)C6)CC5)nc4c3F)c12 (stereo not drawn) [Compound 154]", "< 5.1 µM"],
  ["C#Cc1c(F)ccc2cc(O)cc(-c3ncc4c(N5CC6CCC(C5)N6)nc(OCC5(CN6CCC(CC7CCN(c8ccc9c(c8)CN(C8CCC(=O)NC8=O)C9=O)CC7)CC6)CC5)nc4c3F)c12 (stereo not drawn) [Compound 99]", "< 5.1 µM"],
  ["C#Cc1c(F)ccc2cccc(-c3ncc4c(N5CC6CCC(C5)N6)nc(OC[C@@H]5C[C@@H](OC6CCN(CC7CCN(c8ccc9c(c8)CN(C8CCC(=O)NC8=O)C9=O)CC7)CC6)CN5C)nc4c3F)c12 (stereo partly drawn) [Compound 144]", "< 5.1 µM"],
  ["CCc1cccc2cc(O)cc(-c3ncc4c(N5CC6CCC(C5)N6)nc(OCCN5CCC(CN(C)[C@H]6C[C@H](Oc7ccc8c(c7)C(=O)N(C7CCC(=O)NC7=O)C8=O)C6)CC5)nc4c3F)c12 (stereo partly drawn) [Compound 11]", "0.25 to 1 µM"],
  ["C#Cc1c(F)ccc2cc(O)cc(-c3ncc4c(N5CC6CCC(C5)N6)nc(OCCN5CCN(CC6CCN(CC7CCN(c8ccc9c(c8F)CN(C8CCC(=O)NC8=O)C9=O)CC7)CC6)CC5(C)C)nc4c3F)c12 (stereo not drawn) [Compound 174]", "< 5.1 µM"],
  ["C#Cc1c(F)ccc2cc(O)cc(-c3ncc4c(N5CC6CCC(C5)N6)nc(OCCN5CCC(CN6CCN(CC7CCN(c8ccc9c(c8F)CN(C8CCC(=O)NC8=O)C9=O)CC7)CC6)CC5)nc4c3F)c12 (stereo not drawn) [Compound 101]", "< 5.1 µM"],
  ["CCc1cccc2cc(O)cc(-c3ncc4c(N5CC6CCC(C5)N6)nc(OCCN5CCN(CCN(C)[C@H]6C[C@H](Oc7ccc8c(c7)C(=O)N(C7CCC(=O)NC7=O)C8=O)C6)CC5)nc4c3F)c12 (stereo partly drawn) [Compound 4]", "> 1 µM"],
  ["C#Cc1c(F)ccc2cc(O)cc(-c3ncc4c(N5CC6CCC(C5)N6)nc(OCCN5CCC(CC6CCN(CC7CCN(c8ccc(F)c9c8CN(C8CCC(=O)NC8=O)C9=O)CC7)CC6)CC5)nc4c3F)c12 (stereo not drawn) [Compound 123]", "< 5.1 µM"]
]}
